target_under_test: FGFR3 (human) (UniProt P22607)
Sequence (P22607 whole entry, looked up): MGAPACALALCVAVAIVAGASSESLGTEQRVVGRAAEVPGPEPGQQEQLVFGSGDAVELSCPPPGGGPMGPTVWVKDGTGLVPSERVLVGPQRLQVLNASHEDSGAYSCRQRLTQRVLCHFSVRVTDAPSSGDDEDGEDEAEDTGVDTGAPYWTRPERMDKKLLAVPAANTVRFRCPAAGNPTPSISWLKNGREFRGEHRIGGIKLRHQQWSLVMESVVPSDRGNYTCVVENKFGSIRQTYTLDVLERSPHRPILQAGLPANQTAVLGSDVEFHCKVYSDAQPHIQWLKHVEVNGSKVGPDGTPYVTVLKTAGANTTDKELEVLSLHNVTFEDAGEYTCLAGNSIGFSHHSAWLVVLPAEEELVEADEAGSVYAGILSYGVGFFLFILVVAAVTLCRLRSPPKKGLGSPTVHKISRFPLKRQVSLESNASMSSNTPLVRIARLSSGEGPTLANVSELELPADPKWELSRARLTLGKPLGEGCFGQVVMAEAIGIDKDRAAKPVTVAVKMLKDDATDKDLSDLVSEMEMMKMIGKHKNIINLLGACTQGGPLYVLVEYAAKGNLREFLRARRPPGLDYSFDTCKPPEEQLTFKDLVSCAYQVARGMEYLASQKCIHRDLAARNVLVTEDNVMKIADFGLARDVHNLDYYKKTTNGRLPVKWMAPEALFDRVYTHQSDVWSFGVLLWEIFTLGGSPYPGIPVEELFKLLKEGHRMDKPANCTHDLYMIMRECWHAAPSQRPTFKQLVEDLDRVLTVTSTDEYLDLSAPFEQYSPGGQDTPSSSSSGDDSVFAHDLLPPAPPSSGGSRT
test_protocol: radiometric filter-binding kinase assay, Kinase HotSpot
reported_conditions: compound 0.5 µM; ATP 10 µM
Please provide measured residual activity for the entries that follow.
Record the value in %, omitting the unit from your answer.

Query: # get_value(readout='residual activity', item= Cn1cnc2cc3c(Nc4cccc(Br)c4)ncnc3cc21 )
Result: 98.6

Query: Moving on to the next compound: CCN(CC)CCCCN1c2ccccc2Oc2ccc(Cl)cc21
Result: 91.8

Query: Moving on to the next compound: Cc1nc2cc3nc(-c4cccs4)cnc3cc2n1C
Result: 67.1

Query: Moving on to the next compound: COc1cc2ncnc(N3CCN(C(=O)Nc4ccc(Oc5ccccc5)cc4)CC3)c2cc1OC
Result: 99.9

Query: Moving on to the next compound: COc1ccc(CNC(=O)Nc2ncc([N+](=O)[O-])s2)cc1
Result: 108
